Provide the recorded recombinant barcode read abundance (log10) for the entries that follow.
- Assay summary: recombinant barcode read abundance after kanamycin selection (control-corrected) (log10(CPM+1)); higher = more efficient recombination; sequences stand for … in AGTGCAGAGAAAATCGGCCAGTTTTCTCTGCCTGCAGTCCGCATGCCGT…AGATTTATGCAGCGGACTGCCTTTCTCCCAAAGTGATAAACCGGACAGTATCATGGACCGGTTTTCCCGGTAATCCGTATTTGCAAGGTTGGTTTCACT; site = the 11-nt target
Answer using only a numeral; do not append any unit.

Check the records and state recombinant barcode read abundance (log10) for GAGCCGACTTGGGTTCTAACCTGTTGCCT (site GAGCGGACTAG)
0.274

Kindly indicate its recorded recombinant barcode read abundance (log10). Item: TCTAACCCTTGGGTTCTAACCTGTTGCGG (site TCTAACCCTCC)
1.09

Input GGCATATCTTGGGTTCTAACCTGTTGCCT (site AGTATATCTAG) , output reported recombinant barcode read abundance (log10).
0.0602

Specify reported recombinant barcode read abundance (log10) for the sequence shown: GACGCTTCTTGGGTTCTAACCTGTTGCAT (site GACGCAACTAT)
1

Entry GGGGCTTCTTGGGTTCTAACCTGTTGCCT (site GGGGCTTCTAG) needs its recombinant barcode read abundance (log10) filled in; supply it.
0.919

For the sequence AGTCTGCCTTGGGTTCTAACCTGTTGCCT (site CGTCTGCCTAG) , report recombinant barcode read abundance (log10).
0.0547

Supply reported recombinant barcode read abundance (log10) belonging to this sequence: TGGAGCCCTTGGGTTCTAACCTGTTGCAT (site TGGAGCCCTCT)
0.053

Please supply the value of reported recombinant barcode read abundance (log10) for the item AGCCTCCCTTGGGTTCTAACCTGTTGCCA (site CAGGGGTCTAT)
0.121

Identify measured recombinant barcode read abundance (log10) corresponding to ACCCTGTCTTGGGTTCTAACCTGTTGCCG (site ACCCTGTCTCG)
2.44

Please give measured recombinant barcode read abundance (log10) of the following entry: TACTCAACTTGGGTTCTAACCTGTTGCCT (site TACTCAACTAG)
0.0463

###

- Assay summary: recombinant UMI read abundance after kanamycin selection (control-corrected) (log10(CPM+1)); higher = more efficient recombination; extreme values may be limits of the assay; sequences stand for … in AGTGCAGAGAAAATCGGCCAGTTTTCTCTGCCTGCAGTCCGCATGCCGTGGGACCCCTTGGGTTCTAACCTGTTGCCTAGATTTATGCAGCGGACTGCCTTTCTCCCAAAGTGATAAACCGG…AGGTTGGTTTCACT; site = the 11-nt donor
rule met means recorded recombinant UMI read abundance (log10) is 0.01 or above; rule not met means it is below 0.01.

Is recombinant UMI read abundance (log10) for CTTGAGTCATGGACCGGTTTTCCCGGTAATCCGTATTTGAT (site CTTGAGTCTAT) at or above 0.01?
rule met

Could you please find out whether AGCCTTTCATGGACCGGTTTTCCCGGTAATCCGTATTTGAG (site AGCCTTTCTCT) has recombinant UMI read abundance (log10) that meets 0.01 or exceeds it?
rule not met

Textbook exercise: given the entry TAGTATACATGGACCGGTTTTCCCGGTAATCCGTATTTGTG (site TAGTATACTCA) , state whether its recombinant UMI read abundance (log10) is greater than or equal to 0.01.
rule met

Reported recombinant UMI read abundance (log10) reaches at least 0.01 for CCTAAAGCATGGACCGGTTTTCCCGGTAATCCGTATTTGAT (site CCAAAAGCTAT) ?
rule not met

Reported recombinant UMI read abundance (log10) reaches at least 0.01 for AAGATTCCATGGACCGGTTTTCCCGGTAATCCGTATTTGTA (site AAGATTCCTTA) ?
rule met

Record CTTTAGACATGGACCGGTTTTCCCGGTAATCCGTATTTGAG (site CATTAGACTCT) ; criterion: recombinant UMI read abundance (log10) no lower than 0.01. Met?
rule met

Hello, I need to know if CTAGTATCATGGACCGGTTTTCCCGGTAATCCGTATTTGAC (site TTAATATCTGT) has measured recombinant UMI read abundance (log10) not below 0.01. Thanks!
rule not met

Reported recombinant UMI read abundance (log10) reaches at least 0.01 for CACGTCCCATGGACCGGTTTTCCCGGTAATCCGTATTTGTT (site CACGTCCCTAA) ?
rule met

Does the reported recombinant UMI read abundance (log10) for AAGCACGCATGGACCGGTTTTCCCGGTAATCCGTATTTGAG (site AAGCACGCTCC) fall at or above the 0.01 mark?
rule met

Quick check: does ATTGAGACATGGACCGGTTTTCCCGGTAATCCGTATTTGGT (site ATTGAGGCTAC) have recombinant UMI read abundance (log10) greater than or equal to 0.01?
rule met

Check the entry ATCCAAGCATGGACCGGTTTTCCCGGTAATCCGTATTTGCG (site ATCCAAGCTCA) : does recombinant UMI read abundance (log10) equal or exceed 0.01?
rule met

Is recombinant UMI read abundance (log10) for AGGAGGACATGGACCGGTTTTCCCGGTAATCCGTATTTGCC (site AGGAGGACTGG) at or above 0.01?
rule met

Decide: recombinant UMI read abundance (log10) of CCTAGTACATGGACCGGTTTTCCCGGTAATCCGTATTTGGC (site CCTATTACTGC) >= 0.01?
rule not met

Quick check, recombinant UMI read abundance (log10) >= 0.01? AACAGCGCATGGACCGGTTTTCCCGGTAATCCGTATTTGAC (site AACAGCGCTGT)
rule met

Hi, just wondering whether CGAGCATCATGGACCGGTTTTCCCGGTAATCCGTATTTGTT (site CGAGCATCTAA) shows recombinant UMI read abundance (log10) of 0.01 or higher.
rule met

Say whether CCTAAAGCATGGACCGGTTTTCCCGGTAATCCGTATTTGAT (site CCTAAATCTAT) shows recombinant UMI read abundance (log10) of 0.01 or more.
rule not met

hey, is recombinant UMI read abundance (log10) for this one >= 0.01? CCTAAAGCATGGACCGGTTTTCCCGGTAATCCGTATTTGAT (site CCTAAAGCTAG)
rule not met

###

- Assay summary: recombinant UMI read abundance after kanamycin selection (control-corrected) (log10(CPM+1)); higher = more efficient recombination; extreme values may be limits of the assay; sequences stand for … in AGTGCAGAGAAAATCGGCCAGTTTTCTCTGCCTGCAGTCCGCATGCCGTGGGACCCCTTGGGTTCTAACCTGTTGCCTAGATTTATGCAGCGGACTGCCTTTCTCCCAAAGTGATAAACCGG…AGGTTGGTTTCACT; site = the 11-nt donor
Kindly supply the reported recombinant UMI read abundance (log10) values for the records listed here.
The reply should be a number, written without any unit.

Write down recombinant UMI read abundance (log10) measured for item CAATCAGCATGGACCGGTTTTCCCGGTAATCCGTATTTGCT (site CAAACAGCTAG)
0

Item TAGAATACATGGACCGGTTTTCCCGGTAATCCGTATTTGCG (site TAGAATACTAG) : provide recombinant UMI read abundance (log10)
0

Quickly give me recorded recombinant UMI read abundance (log10) for AGGACTTCATGGACCGGTTTTCCCGGTAATCCGTATTTGAC (site AGGACTCCTGT)
0.509

Identify the reported recombinant UMI read abundance (log10) for the following entry. TAGAATACATGGACCGGTTTTCCCGGTAATCCGTATTTGCG (site TAGAATACTGG)
0

State, in one line, measured recombinant UMI read abundance (log10) of GCGTTTACATGGACCGGTTTTCCCGGTAATCCGTATTTGCT (site CCGTTTACTAG)
0

Check the records and state recombinant UMI read abundance (log10) for TTTGCGGCATGGACCGGTTTTCCCGGTAATCCGTATTTGCT (site TTGGCGGCTAG)
0.0258

For TGCATGCCATGGACCGGTTTTCCCGGTAATCCGTATTTGGT (site TGCATGCCTAC) , write its recombinant UMI read abundance (log10).
0.0134

For the sequence CGTGGAACATGGACCGGTTTTCCCGGTAATCCGTATTTGAT (site CGTGGAACTAG) , give its measured recombinant UMI read abundance (log10) value.
0

Hello, please tell me recorded recombinant UMI read abundance (log10) for this one: GCTAGTGCATGGACCGGTTTTCCCGGTAATCCGTATTTGGT (site GCTAGTGCTAC)
1.73

###

- Assay summary: recombinant UMI read abundance after kanamycin selection (control-corrected) (log10(CPM+1)); higher = more efficient recombination; extreme values may be limits of the assay; sequences stand for … in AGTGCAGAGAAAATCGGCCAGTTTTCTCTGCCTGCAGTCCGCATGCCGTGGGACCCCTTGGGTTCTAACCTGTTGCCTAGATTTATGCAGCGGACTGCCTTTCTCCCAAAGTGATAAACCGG…AGGTTGGTTTCACT; site = the 11-nt donor
Experimental endpoint: recombinant UMI read abundance (log10)
The reply should be a number, written without any unit.

Query recombinant UMI read abundance (log10) for CTTCCCTCATGGACCGGTTTTCCCGGTAATCCGTATTTGTA (site CTTCGCTCTTA)
0.00376

Look up recombinant UMI read abundance (log10) of TACTTGACATGGACCGGTTTTCCCGGTAATCCGTATTTGCT (site TCCTTGACTAG) and report it.
0.255

Tell me recombinant UMI read abundance (log10) reported for CCCACCGCATGGACCGGTTTTCCCGGTAATCCGTATTTGCG (site GCCACCGCTCG)
0.0563

For the sequence GGATCATCATGGACCGGTTTTCCCGGTAATCCGTATTTGCT (site AGATCATCTAG) , give its reported recombinant UMI read abundance (log10).
0

Return the recorded recombinant UMI read abundance (log10) value; entry: GAGTCCCCATGGACCGGTTTTCCCGGTAATCCGTATTTGTC (site GAGTCCCCTGA)
0.99

Answer with reported recombinant UMI read abundance (log10) of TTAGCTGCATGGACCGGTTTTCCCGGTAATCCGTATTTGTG (site TTAGATGCTCA)
0.0477

Determine its reported recombinant UMI read abundance (log10): GGGCCGGCATGGACCGGTTTTCCCGGTAATCCGTATTTGGC (site TGGCCGGCTGC)
0

Query recombinant UMI read abundance (log10) for AGCTCAGCATGGACCGGTTTTCCCGGTAATCCGTATTTGGG (site AGCTCAGCTCT)
0.337

Kindly indicate its recorded recombinant UMI read abundance (log10). Item: CGGTTATCATGGACCGGTTTTCCCGGTAATCCGTATTTGCT (site CGATCATCTAG)
0

In one line, give reported recombinant UMI read abundance (log10) of the entry AGCCTTTCATGGACCGGTTTTCCCGGTAATCCGTATTTGAG (site AGCCTTTCTTT) .
0.007

Please indicate recombinant UMI read abundance (log10) recorded for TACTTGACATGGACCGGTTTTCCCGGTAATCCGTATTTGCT (site TACTAGACTAG)
0.43

Give recombinant UMI read abundance (log10) for the following sequence: CAGAGGCCATGGACCGGTTTTCCCGGTAATCCGTATTTGCT (site CAGAGGCCTAG)
1.68

Consider the sequence GCGAGAACATGGACCGGTTTTCCCGGTAATCCGTATTTGCT (site GCGATAACTAG) . State its measured recombinant UMI read abundance (log10).
0.492

Quickly give me recorded recombinant UMI read abundance (log10) for CGCGTCTCATGGACCGGTTTTCCCGGTAATCCGTATTTGTA (site CGCGTCTCTTA)
3.26

Look up and state reported recombinant UMI read abundance (log10) for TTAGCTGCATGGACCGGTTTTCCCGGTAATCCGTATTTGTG (site TTAGCTGCTCG)
0.0153

Input CACTTGGCATGGACCGGTTTTCCCGGTAATCCGTATTTGAA (site CACTTGGCTTG) , output reported recombinant UMI read abundance (log10).
1.05

Supply measured recombinant UMI read abundance (log10) of GATTCGGCATGGACCGGTTTTCCCGGTAATCCGTATTTGAC (site GATTCGGCTGT) in your reply.
0.484

Please give the documented recombinant UMI read abundance (log10) of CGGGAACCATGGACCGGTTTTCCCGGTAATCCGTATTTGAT (site CGAGAACCTAT)
0
